- Tested on: Staphylococcus aureus
- procedure.summary: Antibacterial activity against Staphylococcus aureus ATCC 29213 by broth microdilution method
- Assay type: functional
Threshold check on IC50: strictly below 2 µg/mL is 1.0; on or above 2 µg/mL is 0.0.

Take a look at these entries with their results.
Incoming: Input Nc1ccccc1-n1sc2ccccc2c1=O ; condition: IC50 strictly below 2 µg/mL. Does it hold?
Outgoing: 0.0

Incoming: Input COC(=O)[C@H](CC(C)C)n1sc2ccccc2c1=O ; condition: IC50 strictly below 2 µg/mL. Does it hold?
Outgoing: 0.0

Incoming: Input O=c1c2ccccc2sn1CCn1sc2ccccc2c1=O ; condition: IC50 strictly below 2 µg/mL. Does it hold?
Outgoing: 1.0

Incoming: Input CC(=O)Nc1ccccc1-n1sc2ccccc2c1=O ; condition: IC50 strictly below 2 µg/mL. Does it hold?
Outgoing: 0.0

Others:
Incoming: Input CC(C)Cn1sc2ccccc2c1=O ; condition: IC50 strictly below 2 µg/mL. Does it hold?
Outgoing: 0.0

Incoming: Input COc1ccc(-n2sc3ccccc3c2=O)cc1 ; condition: IC50 strictly below 2 µg/mL. Does it hold?
Outgoing: 1.0
